molecular target: Angiopoietin-1 receptor (Homo sapiens) (UniProt Q02763); experiment: Inhibition of TEK (unknown origin) at 500 nM
Sequence (Q02763 whole entry): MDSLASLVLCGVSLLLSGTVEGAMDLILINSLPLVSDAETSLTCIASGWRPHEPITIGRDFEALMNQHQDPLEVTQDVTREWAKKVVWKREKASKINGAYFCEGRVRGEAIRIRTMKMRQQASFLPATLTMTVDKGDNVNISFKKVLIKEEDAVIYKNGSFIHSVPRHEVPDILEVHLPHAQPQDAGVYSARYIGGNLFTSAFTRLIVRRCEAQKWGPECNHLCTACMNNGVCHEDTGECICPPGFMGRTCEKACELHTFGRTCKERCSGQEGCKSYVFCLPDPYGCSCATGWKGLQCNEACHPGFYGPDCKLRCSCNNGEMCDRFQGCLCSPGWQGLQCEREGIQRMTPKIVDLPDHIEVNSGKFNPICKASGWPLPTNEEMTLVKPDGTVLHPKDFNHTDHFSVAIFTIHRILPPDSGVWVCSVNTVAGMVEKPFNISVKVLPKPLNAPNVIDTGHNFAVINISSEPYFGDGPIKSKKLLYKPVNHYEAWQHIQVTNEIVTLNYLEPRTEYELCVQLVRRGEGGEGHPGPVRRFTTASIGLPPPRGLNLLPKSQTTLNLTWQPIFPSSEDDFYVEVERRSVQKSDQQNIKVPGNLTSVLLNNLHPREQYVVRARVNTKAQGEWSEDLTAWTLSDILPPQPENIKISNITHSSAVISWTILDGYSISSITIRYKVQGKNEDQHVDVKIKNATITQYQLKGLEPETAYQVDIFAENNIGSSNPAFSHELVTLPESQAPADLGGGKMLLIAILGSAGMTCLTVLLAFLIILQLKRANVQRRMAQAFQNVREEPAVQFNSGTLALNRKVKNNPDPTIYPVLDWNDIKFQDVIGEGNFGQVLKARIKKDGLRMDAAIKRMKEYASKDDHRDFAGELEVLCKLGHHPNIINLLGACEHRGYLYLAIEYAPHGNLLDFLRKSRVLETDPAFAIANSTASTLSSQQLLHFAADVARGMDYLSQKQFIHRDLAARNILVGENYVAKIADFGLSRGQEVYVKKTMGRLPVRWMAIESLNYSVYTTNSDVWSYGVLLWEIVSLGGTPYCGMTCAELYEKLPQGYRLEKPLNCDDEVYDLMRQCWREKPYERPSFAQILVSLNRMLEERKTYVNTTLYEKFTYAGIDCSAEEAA
Classification field: enter 1.0 for inhibition values not below 7%, 0.0 for values below it.

Request: In plain terms: is recorded inhibition at least 7% for C[C@@H](Nc1ncnc2sc(-c3ccc(C(=O)NCCN(C)C)cc3)cc12)c1ccccc1 ?
Response: 0.0

Request: inhibition >= 7% for CN(C)CCNC(=O)c1ccc(-c2cc3c(N[C@H](CO)c4ccccc4)ncnc3s2)cc1 ?
Response: 1.0

Request: Test whether the compound COc1cc(CO)ccc1-c1cc2c(N[C@H](C)c3ccccc3)ncnc2s1 records inhibition of 7% or higher.
Response: 0.0

Request: Check the entry COc1cc(CO)ccc1-c1cc2c(N[C@H](CO)c3ccccc3)ncnc2s1 : does inhibition equal or exceed 7%?
Response: 1.0
